Value source: patent US12083124B2

molecular target: wild-type un-phosphorylated FGFR3 (Homo sapiens, UniProt P22607); assay: FGFR Enzymatic Assay (FRET peptide phosphorylation), FGFR3
Sequence (P22607 23-806): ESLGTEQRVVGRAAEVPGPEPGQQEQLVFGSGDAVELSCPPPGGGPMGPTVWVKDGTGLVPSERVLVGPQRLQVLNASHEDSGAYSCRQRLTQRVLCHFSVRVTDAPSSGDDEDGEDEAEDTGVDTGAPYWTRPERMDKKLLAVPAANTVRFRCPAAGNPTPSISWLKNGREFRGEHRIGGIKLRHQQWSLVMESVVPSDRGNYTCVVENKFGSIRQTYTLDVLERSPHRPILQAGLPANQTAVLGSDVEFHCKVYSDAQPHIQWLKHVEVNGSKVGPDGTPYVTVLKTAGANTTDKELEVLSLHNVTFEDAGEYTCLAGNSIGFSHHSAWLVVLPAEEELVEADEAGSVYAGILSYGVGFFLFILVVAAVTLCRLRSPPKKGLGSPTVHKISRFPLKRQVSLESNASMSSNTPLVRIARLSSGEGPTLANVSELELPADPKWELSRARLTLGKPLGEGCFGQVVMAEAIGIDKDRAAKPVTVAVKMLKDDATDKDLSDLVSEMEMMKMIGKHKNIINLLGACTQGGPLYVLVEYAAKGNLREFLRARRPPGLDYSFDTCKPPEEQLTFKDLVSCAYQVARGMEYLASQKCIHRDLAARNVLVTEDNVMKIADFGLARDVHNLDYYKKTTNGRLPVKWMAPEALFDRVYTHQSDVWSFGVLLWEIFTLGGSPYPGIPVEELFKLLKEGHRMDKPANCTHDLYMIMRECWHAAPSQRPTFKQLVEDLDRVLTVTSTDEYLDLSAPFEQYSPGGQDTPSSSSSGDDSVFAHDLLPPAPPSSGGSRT
READOUT TYPE: IC50

                                    compound  result
 0  COc1cc2[nH]nc(-c3ccc(CN4CCN(C)C(=O)[C@@H]4C)nc3)c2nc1-c1cccc2c1CCC2  < 6 nM
 1  CCN1CC(n2cc(-c3n[nH]c4cc(OC)c(-c5cccc6c5CCC6)nc34)cn2)C1  < 6 nM
 2  COc1cc2[nH]nc(-c3ccc(C4CCN(C(=O)C5COCCN5C)C4)nc3)c2nc1-c1cccc2c1CCC2 (single isomer, unassigned)  < 6 nM
 3  COc1cc2[nH]nc(-c3ccc(OC4CCOC4)nc3)c2nc1-c1cccc2c1CC(O)C2 (single isomer, unassigned)  < 6 nM
 4  COc1cc2[nH]nc(-c3ccc(N4CCN(C(C)=O)CC4)nc3)c2nc1-c1cccc(C)c1C  < 6 nM
 5  COc1cc2[nH]nc(-c3cnn(C)c3)c2nc1-c1cccc2c1OCC2  < 6 nM
 6  COc1cc2[nH]nc(-c3ccc(C4CCN(C(C)=O)C4)nc3)c2nc1-c1cccc2c1CCC2C#N (single isomer, unassigned)  < 6 nM
 7  COc1cc2[nH]nc(-c3cnn(C4CN(C(=O)[C@H](C)N(C)C)C4)c3)c2nc1-c1cccc2c1CCC2  < 6 nM
 8  COc1cc2[nH]nc(-c3cnn([C@H]4CCN(C(=O)CO)C4)c3)c2nc1-c1cccc2c1CCC2  < 6 nM
 9  COc1cc2[nH]nc(-c3cnn(C4CN(C(=O)[C@H]5C[C@@H](O)C5)C4)c3)c2nc1-c1cccc2c1CCC2  < 6 nM
10  COc1cc2[nH]nc(-c3cnn(C4CC4)c3)c2nc1-c1cccc(C)c1C  < 6 nM
11  COc1cc2[nH]nc(-c3ccc(N4CCN(CCO)CC4)nc3)c2nc1-c1cccc2c1CCC2C#N (stereo not drawn)  < 6 nM
12  COc1cc2[nH]nc(-c3cnn(C4CN(C(=O)[C@H](C)O)C4)c3)c2nc1-c1cccc2c1CCC2  < 6 nM
13  Cn1cc(-c2n[nH]c3cc(C(F)F)c(-c4cccc5c4CCC5)nc23)cn1  < 6 nM
14  COc1cc2[nH]nc(-c3cnn(C)c3)c2nc1-c1cccc2c1CC(O)C2 (single isomer, unassigned)  < 6 nM
